B1: TMEM106C (parent)
chain: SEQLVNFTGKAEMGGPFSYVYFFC

Variants of: B1
Assay: protein stability index of a GFP-peptide fusion (GPS, HEK-293T) (PSI 1-6); higher = more stable;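 also: lentivirally expressed fusions sorted by FACS into six bins by GFP to DsRed ratio, PSI derived from sequencing read proportions per bin multiplied by bin number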
Conditions: c terminus: a fixed tail appended
QUANTITY KIND: protein stability index
Output spec: single numeric token, no unit.

{"columns": ["VARIANT DESCRIPTOR", "ASSAY VALUE"],
 "data": [
  ["V20Y", 2.53]
]}

Task item: Name the recorded protein stability index for `S18G` .
Reply: 1.88

Task item: Field request: protein stability index | item: `T8Q`
Reply: 3.6

Task item: Query (variant): `C24H` ; field requested: protein stability index
Reply: 3.25
